Recorded values, source ChEMBL document CHEMBL5724914.

assay: The drug is tested on Z-005 corresponding to metagenome with ENA study accession number: PRJEB37062 and ENA sample accession number: ERS12561805 for biotransformation under anaerobic condition. The drug concentrations were measured over 9 timepoints collected between 0 and 24 hours of incubation by liquid-chromatography-coupled mass spectrometry (LC–MS); details: 2 µM; also: call rule not given here
EXPERIMENTAL_READOUT: Bacterial Biotransformation

See these solved cases before continuing.
COMPOUND: COC1=CC(=O)C[C@@H](C)[C@]12Oc1c(Cl)c(OC)cc(OC)c1C2=O
Bacterial Biotransformation: Compound metabolized
--
COMPOUND: OCCN1CCN(CCCN2c3ccccc3Sc3ccc(C(F)(F)F)cc32)CC1
Bacterial Biotransformation: Compound metabolized
--
COMPOUND: CNC(=C[N+](=O)[O-])NCCSCc1ccc(CN(C)C)o1
Bacterial Biotransformation: Compound NOT metabolized
--
COMPOUND: CC(=O)CC(c1ccccc1)c1c(O)c2ccccc2oc1=O (stereo not drawn)
Bacterial Biotransformation: Compound NOT metabolized
--
COMPOUND: CN1CCc2c(c3ccccc3n2Cc2ccccc2)C1.CN1CCc2c(c3ccccc3n2Cc2ccccc2)C1.O=S(=O)(O)c1cccc2c(S(=O)(=O)O)cccc12
Bacterial Biotransformation: Compound NOT metabolized
--
COMPOUND: CC(=O)OCC(=O)[C@@]12N=C(C)O[C@@H]1C[C@H]1[C@@H]3CCC4=CC(=O)C=C[C@]4(C)[C@H]3[C@@H](O)C[C@@]12C
Bacterial Biotransformation: Compound metabolized
--
COMPOUND: O=c1[nH]c2ccccc2n1C1CCN(CCCC(c2ccc(F)cc2)c2ccc(F)cc2)CC1 [PIMOZIDE]
Bacterial Biotransformation: Compound metabolized

Now turn to the next compound.
Exercise: Give the measured Bacterial Biotransformation of `CO[C@]12C[C@@H](COC(=O)c3cncc(Br)c3)CN(C)[C@@H]1Cc1cn(C)c3cccc2c13` .
Solution: Compound metabolized
